Assay: polyglutamine-triggered caspase-3 activation inhibitors, cell-based (AID 1583)
Details: polyglutamine-induced caspase-3 activation, cell assay; stronger effect = higher value;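 tested at 10 µM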
Quick rule for you: inhibition at 10% or higher means MET, lower means NOT MET.

INSERT INTO measurements (compound, class_name) VALUES
  ('O=c1n(CCCN2CCN(c3cccc(Cl)c3)CC2)nc2ccccn12', 'MET'),
  ('CCC1(c2ccccc2)C(=O)NCNC1=O', 'NOT MET'),
  ('Clc1cccc(Cl)c1NC1=NCCN1', 'NOT MET'),
  ('CC(C)(C)NCC(O)COc1cccc2c1C[C@H](O)[C@H](O)C2 (stereo partly drawn)', 'MET'),
  ('CC1=C(/C=C/C(C)=C/C=C/C(C)=C/C(=O)O)C(C)(C)CCC1', 'MET'),
  ('NC12CC3CC(CC(C3)C1)C2', 'NOT MET'),
  ('O=C(C1CCCCC1)N1CC(=O)N2CCc3ccccc3C2C1 (stereo not drawn)', 'NOT MET'),
  ('CCOC(=O)[C@H](CCc1ccccc1)N[C@@H](C)C(=O)N1Cc2ccccc2C[C@H]1C(=O)O', 'MET'),
  ('Cc1ccc(-c2cc(C(F)(F)F)nn2-c2ccc(S(N)(=O)=O)cc2)cc1', 'MET'),
  ('NCCc1ccc(O)c(O)c1', 'MET'),
  ('O=C1NC(=O)C(c2ccccc2)(c2ccccc2)N1', 'NOT MET'),
  ('CC(C)C(=O)Nc1ccc([N+](=O)[O-])c(C(F)(F)F)c1', 'MET'),
  ('CS(=O)(=O)OCCCCOS(C)(=O)=O', 'MET'),
  ('Cc1onc(-c2c(Cl)cccc2Cl)c1C(=O)N[C@@H]1C(=O)N2[C@@H]1SC(C)(C)[C@@H]2C(=O)O', 'MET'),
  ('Cc1cn([C@H]2C[C@H](N=[N+]=[N-])[C@@H](CO)O2)c(=O)[nH]c1=O', 'NOT MET'),
  ('Cn1cnc([N+](=O)[O-])c1Sc1ncnc2nc[nH]c12', 'MET'),
  ('CCCCNC(=O)NS(=O)(=O)c1ccc(C)cc1', 'NOT MET'),
  ('CN(C)CCOC(c1ccccc1)c1ccccc1', 'MET'),
  ('CCCN(CCC)S(=O)(=O)c1ccc(C(=O)O)cc1', 'NOT MET'),
  ('CN1C(C(=O)Nc2ccccn2)=C(O)c2ccccc2S1(=O)=O', 'NOT MET'),
  ('COc1ccccc1OCC(O)COC(N)=O (stereo not drawn)', 'NOT MET'),
  ('NS(=O)(=O)c1cc2c(cc1C(F)(F)F)NC(Cc1ccccc1)NS2(=O)=O (stereo not drawn)', 'MET'),
  ('CCCSc1ccc2nc(NC(=O)OC)[nH]c2c1', 'MET'),
  ('Nc1ncn([C@@H]2O[C@H](CO)[C@@H](O)[C@H]2O)c(=O)n1', 'NOT MET'),
  ('CCc1nc(N)nc(N)c1-c1ccc(Cl)cc1', 'NOT MET'),
  ('CC[C@H](C)C(=O)O[C@H]1C[C@@H](C)C=C2C=C[C@H](C)[C@H](CC[C@@H]3C[C@@H](O)CC(=O)O3)[C@H]21', 'NOT MET'),
  ('CCN(CC)CCCC(C)Nc1c2ccc(Cl)cc2nc2ccc(OC)cc12 (stereo not drawn)', 'NOT MET'),
  ('CCCNC(C)C(=O)Nc1ccccc1C (stereo not drawn)', 'NOT MET'),
  ('CN(C)CCN(Cc1ccccc1)c1ccccn1', 'MET'),
  ('Nc1nc2ncc(CNc3ccc(C(=O)N[C@@H](CCC(=O)O)C(=O)O)cc3)nc2c(=O)[nH]1', 'MET'),
  ('OCCN1CCN(CCCN2c3ccccc3Sc3ccc(Cl)cc32)CC1', 'NOT MET'),
  ('NNCCc1ccccc1', 'NOT MET'),
  ('CN(C)CCC=C1c2ccccc2CCc2ccccc21', 'NOT MET'),
  ('CN1CCN(CCCN2c3ccccc3Sc3ccc(C(F)(F)F)cc32)CC1', 'NOT MET'),
  ('CCc1cccc2c3c([nH]c12)C(CC)(CC(=O)O)OCC3 (stereo not drawn)', 'MET'),
  ('CN[C@@H]1[C@H](O)[C@H](NC)[C@H]2O[C@@]3(O)C(=O)C[C@@H](C)O[C@H]3O[C@@H]2[C@H]1O', 'MET'),
  ('CCN(CC)CCOC(=O)c1ccc(N)cc1', 'NOT MET'),
  ('CCN(CC)CC(=O)Nc1c(C)cccc1C', 'NOT MET'),
  ('N[C@@H]1CONC1=O', 'NOT MET'),
  ('C=C(CC)C(=O)c1ccc(OCC(=O)O)c(Cl)c1Cl', 'NOT MET'),
  ('OC(CCN1CCCCC1)(c1ccccc1)C1CCCCC1 (stereo not drawn)', 'NOT MET'),
  ('CC(C)NCC(O)c1ccc(O)c(O)c1 (stereo not drawn)', 'MET'),
  ('CC(C)NCC(O)c1cc(O)cc(O)c1 (stereo not drawn)', 'MET'),
  ('CC(C)Cc1ccc(C(C)C(=O)O)cc1 (stereo not drawn)', 'NOT MET'),
  ('O=C1N=C(O)CN1/N=C/c1ccc(-c2ccc([N+](=O)[O-])cc2)o1', 'MET');
